- System: Trichophyton mentagrophytes
- run description: Antifungal activity against Trichophyton mentagrophytes 445 after 72 hrs by broth microdilution method
- Format: functional
- applied conditions: Trichophyton mentagrophytes, 445, 72 h

| molecule | MIC |
| --- | --- |
| COc1ccc(CSc2nnc(-c3cc([N+](=O)[O-])cc([N+](=O)[O-])c3)o2)cc1 | > 500 µM |
| O=[N+]([O-])c1cc(-c2nnc(SCc3ccccc3Cl)o2)cc([N+](=O)[O-])c1 | > 500 µM |
| O=[N+]([O-])c1cc(-c2nnc(SCc3ccc(Cl)cc3)o2)cc([N+](=O)[O-])c1 | > 125 µM |
| C[C@@H]1[C@H](O)[C@@H](C)/C=C/C=C/C=C/C=C/C=C/C=C/C=C/[C@H](O[C@@H]2O[C@H](C)[C@@H](O)[C@H](N)[C@@H]2O)C[C@@H]2O[C@](O)(C[C@@H](O)C[C@@H](O)[C@H](O)CC[C@@H](O)C[C@@H](O)CC(=O)O[C@H]1C)C[C@H](O)[C@H]2C(=O)O [AMPHOTERICIN B] | 0.54 µM |
| O=[N+]([O-])c1cc(-n2nnnc2SCc2ccc(Cl)c(Cl)c2)cc([N+](=O)[O-])c1 | > 500 µM |
| O=[N+]([O-])c1cc(-n2nnnc2SCc2ccc(Cl)cc2)cc([N+](=O)[O-])c1 | > 500 µM |
| O=[N+]([O-])c1cc(-c2nnc(SCc3ccc(Br)cc3)o2)cc([N+](=O)[O-])c1 | > 125 µM |
| OC(Cn1cncn1)(Cn1cncn1)c1ccc(F)cc1F [FLUCONAZOLE] | 105 µM |
| O=[N+]([O-])c1cc(-c2nnc(SCc3ccc(Cl)c(Cl)c3)o2)cc([N+](=O)[O-])c1 | > 125 µM |

###

- Test system: Trichophyton mentagrophytes
- run description: Antifungal activity against Trichophyton mentagrophytes 445 after 120 hrs by broth microdilution method
- Type: functional
- applied conditions: Trichophyton mentagrophytes, 445, 120 h

| smi | system name | MIC |
| --- | --- | --- |
| O=[N+]([O-])c1cc(-n2nnnc2SCc2ccc(Cl)cc2)cc([N+](=O)[O-])c1 | Trichophyton mentagrophytes | > 500 µM |
| O=[N+]([O-])c1cc(-c2nnc(SCc3ccc(Br)cc3)o2)cc([N+](=O)[O-])c1 | Trichophyton mentagrophytes | > 125 µM |
| O=[N+]([O-])c1cc(-n2nnnc2SCc2ccc(Cl)c(Cl)c2)cc([N+](=O)[O-])c1 | Trichophyton mentagrophytes | > 500 µM |
| O=[N+]([O-])c1cc(-c2nnc(SCc3ccc(Cl)c(Cl)c3)o2)cc([N+](=O)[O-])c1 | Trichophyton mentagrophytes | > 125 µM |
| O=[N+]([O-])c1cc(-c2nnc(SCc3ccccc3Cl)o2)cc([N+](=O)[O-])c1 | Trichophyton mentagrophytes | > 500 µM |
| O=[N+]([O-])c1cc(-c2nnc(SCc3ccc(Cl)cc3)o2)cc([N+](=O)[O-])c1 | Trichophyton mentagrophytes | > 125 µM |
| COc1ccc(CSc2nnc(-c3cc([N+](=O)[O-])cc([N+](=O)[O-])c3)o2)cc1 | Trichophyton mentagrophytes | > 500 µM |

###

- run description: Selectivity index, ratio of IC50 for human HepG2 cells to MIC for Mycobacterium tuberculosis
- Format: toxicity
- applied conditions: read-out: Selectivity Index
assay endpoint: selectivity ratio

| smi | assay endpoint | value |
| --- | --- | --- |
| O=[N+]([O-])c1cc(-c2nnc(SCc3cccc(Cl)c3)o2)cc([N+](=O)[O-])c1 | selectivity ratio | > 1000 |
| O=[N+]([O-])c1cc(-c2nnc(SCc3ccc(Cl)cc3)o2)cc([N+](=O)[O-])c1 | selectivity ratio | > 1000 |
| O=[N+]([O-])c1cc(-c2nnc(SCc3ccccc3Cl)o2)cc([N+](=O)[O-])c1 | selectivity ratio | > 1000 |
| COc1ccc(CSc2nnc(-c3cc([N+](=O)[O-])cc([N+](=O)[O-])c3)o2)cc1 | selectivity ratio | > 1000 |
| O=[N+]([O-])c1cc(-n2nnnc2SCc2ccc(Cl)c(Cl)c2)cc([N+](=O)[O-])c1 | selectivity ratio | > 120 |
| O=[N+]([O-])c1cc(-c2nnc(SCc3ccc(Cl)c(Cl)c3)o2)cc([N+](=O)[O-])c1 | selectivity ratio | > 1000 |
| O=[N+]([O-])c1cc(-c2nnc(SCc3ccc(Br)cc3)o2)cc([N+](=O)[O-])c1 | selectivity ratio | > 1000 |
| O=[N+]([O-])c1cc(-n2nnnc2SCc2ccc(Cl)cc2)cc([N+](=O)[O-])c1 | selectivity ratio | > 60 |

Data provenance: ChEMBL document CHEMBL4002566
